Tested on: LXRa homodimer (NR concentration 270 nM)
Assay: PBM binding z-score (relative to random genomic background probes); higher = stronger binding; sequences stand for … in GC…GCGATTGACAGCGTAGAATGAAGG
Quick rule: PBM binding z-score of at least -0.06 means t, below that means f.

- biosequence: "ATCGATAGGTCGTGAGGTGAGTATACAGAAAGGC"
  labelValue: "f"
- biosequence: "CAAACTAGGTCAAGGTAAAAGTCGGTTTGTGCCA"
  labelValue: "t"
- biosequence: "CCTACTGGGCCAAAAAGGTCATTGCTGCCGATAA"
  labelValue: "t"
- biosequence: "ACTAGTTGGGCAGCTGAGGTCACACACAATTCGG"
  labelValue: "t"
- biosequence: "AGAATGAGGTTACCAAAGCTCAGGGAAACGCTTG"
  labelValue: "f"
- biosequence: "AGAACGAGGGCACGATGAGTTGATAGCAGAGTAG"
  labelValue: "f"
- biosequence: "TAGCCTAGGTCATGGCCCAGTATACCACGCGAAC"
  labelValue: "t"
- biosequence: "CCGACTGGGGCAGCAAGGTTACCATACCATCCGG"
  labelValue: "f"
- biosequence: "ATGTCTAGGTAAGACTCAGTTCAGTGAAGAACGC"
  labelValue: "t"
- biosequence: "CCTAGTCGGTCAAGGTCACACACGCTATAGGTAC"
  labelValue: "t"
- biosequence: "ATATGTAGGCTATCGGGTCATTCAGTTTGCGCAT"
  labelValue: "t"
- biosequence: "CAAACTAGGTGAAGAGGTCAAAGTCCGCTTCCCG"
  labelValue: "t"
- biosequence: "CAAACTAGGTCACAGACGTCAAAGTCCGTGCGTA"
  labelValue: "t"
- biosequence: "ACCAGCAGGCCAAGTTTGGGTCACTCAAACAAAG"
  labelValue: "f"
- biosequence: "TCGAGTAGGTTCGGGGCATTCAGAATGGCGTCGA"
  labelValue: "f"
- biosequence: "CGTCAAAATTCAACTAAGGTAACGTAAAGCACGC"
  labelValue: "t"
- biosequence: "GCTAGCAGGCCATTTGGGTCTCTCAATGACGGGC"
  labelValue: "f"
- biosequence: "CCGACTGGGGCATTAGGTTACCATAAGCCAGCCC"
  labelValue: "f"
- biosequence: "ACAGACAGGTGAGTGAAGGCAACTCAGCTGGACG"
  labelValue: "f"
- biosequence: "CGAACGACGGCATGAGTTGATAGCAAATGCCGAT"
  labelValue: "f"

---

Tested on: PPARg:RXRa 30nM:10nM, anti-RXR (NR concentration 30 nM, RXRa partner concentration 10 nM)
Assay: PBM binding z-score (relative to random genomic background probes); higher = stronger binding; sequences stand for … in GC…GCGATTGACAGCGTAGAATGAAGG

- biosequence: "TCGAGTAGGTTACCAATGGGGCATTCTGCTTTCT"
  PBM binding z-score: 0.935
- biosequence: "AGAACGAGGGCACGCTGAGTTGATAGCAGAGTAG"
  PBM binding z-score: 0.0193
- biosequence: "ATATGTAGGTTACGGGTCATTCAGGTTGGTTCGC"
  PBM binding z-score: 6.67
- biosequence: "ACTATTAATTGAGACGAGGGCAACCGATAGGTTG"
  PBM binding z-score: 0.271
- biosequence: "CCGACTGGGGCAAAGTTACCATAACGCACAGCCA"
  PBM binding z-score: 3.18
- biosequence: "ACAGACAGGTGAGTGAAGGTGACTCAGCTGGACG"
  PBM binding z-score: -0.492
- biosequence: "TATACAGGGTCAAAGGCCAGAGTGCGAATGTCGA"
  PBM binding z-score: 5.95
- biosequence: "TCAGACAGTTGAAGGTAACTCAGGTACGCAGTCG"
  PBM binding z-score: 3.99
- biosequence: "CCAGACAGGTGAAAGGTAAGTCAGTCTGGTACGC"
  PBM binding z-score: 3
- biosequence: "ACAGACAGGTGAGTGAACGTAACTCAGCTGGACG"
  PBM binding z-score: -0.222
- biosequence: "TGAATGAGGTTATAAGATCAGTGAACGTTGCAAA"
  PBM binding z-score: 0.94
- biosequence: "GCTCGGAGGACAAGGTCAGAGCCTTGTCCGTAGA"
  PBM binding z-score: -0.306
- biosequence: "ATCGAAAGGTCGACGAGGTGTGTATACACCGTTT"
  PBM binding z-score: 1.02
- biosequence: "GATACAGGGTCAGCTAGAGGCCACAGTATGGAAA"
  PBM binding z-score: 1.09
- biosequence: "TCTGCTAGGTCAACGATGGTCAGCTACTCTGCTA"
  PBM binding z-score: 1.62
- biosequence: "CGTCCAAGGTCAGAGAGGTCAGTCAATGCCGAGT"
  PBM binding z-score: 1.03
- biosequence: "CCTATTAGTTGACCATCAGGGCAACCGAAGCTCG"
  PBM binding z-score: -0.404
- biosequence: "CGAACGAGGCCATGAGTTGATAGCAAATGCCGAT"
  PBM binding z-score: -0.00312
- biosequence: "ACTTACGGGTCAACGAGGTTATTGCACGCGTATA"
  PBM binding z-score: 1.88
- biosequence: "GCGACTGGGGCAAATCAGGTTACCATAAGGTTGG"
  PBM binding z-score: -0.18
- biosequence: "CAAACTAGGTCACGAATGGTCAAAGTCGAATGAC"
  PBM binding z-score: 5.7
- biosequence: "CGAACGAGGGCATGAGGTGATAGCAAATGCCGAT"
  PBM binding z-score: 0.483
- biosequence: "CCTCGGAGGACATAAGGTCAGAGCTGTCCGCTTT"
  PBM binding z-score: -0.243
- biosequence: "CCTCGCAGGACAGAAGGTCAGAGCTGTCCGCTTT"
  PBM binding z-score: -0.929
- biosequence: "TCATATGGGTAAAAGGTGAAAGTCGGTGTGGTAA"
  PBM binding z-score: 7.67
- biosequence: "CCTTATGGGTCACTCCAGGTTATAGCATCGGAGT"
  PBM binding z-score: 1.84
- biosequence: "ATGTCTAGGTAACAAGTTCAGTGAAAGAGAGGAC"
  PBM binding z-score: 0.33
- biosequence: "TCTCGGAGGACACGAAGGTCAGAGATTTCCAGAG"
  PBM binding z-score: 2.37
- biosequence: "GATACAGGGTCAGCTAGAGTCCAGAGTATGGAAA"
  PBM binding z-score: 0.896
- biosequence: "GCTAGCAGGCCAGTTGGGTCACTCAATGACGGGC"
  PBM binding z-score: -0.726
- biosequence: "CCTTTCGGGTCACGAGGTTATAGCACGACGAGCG"
  PBM binding z-score: 2.96
- biosequence: "ACTATTAGTTGACTTAGGGCAACCGTTACGACGC"
  PBM binding z-score: 0.154
- biosequence: "CCTACTGGGCCAAAAAGATCATTGATGCCGATAA"
  PBM binding z-score: -0.0196
- biosequence: "CGAAATAGGTCATTGACAGGACAGTGAATAGTAA"
  PBM binding z-score: 4.21
- biosequence: "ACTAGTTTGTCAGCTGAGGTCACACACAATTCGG"
  PBM binding z-score: 0.672
- biosequence: "ATCTCTAGGTAAAGAGAGTTCAGTGAATGCAAAT"
  PBM binding z-score: 0.0587
- biosequence: "TAGCCGAGGTCATGCGGGCCAGTATAGTGTCGGC"
  PBM binding z-score: 2.74
- biosequence: "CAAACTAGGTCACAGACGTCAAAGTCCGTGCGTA"
  PBM binding z-score: 5.35
- biosequence: "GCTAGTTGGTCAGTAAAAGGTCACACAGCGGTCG"
  PBM binding z-score: 2.15
- biosequence: "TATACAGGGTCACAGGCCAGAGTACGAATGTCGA"
  PBM binding z-score: 3.77
- biosequence: "CGTCAAAGTTCAACTAAGGTAGCGTAAAGCACGC"
  PBM binding z-score: 1.94
- biosequence: "GCTATCAGGCCATTTGGGTCACTCAATGACGGGC"
  PBM binding z-score: -0.227
- biosequence: "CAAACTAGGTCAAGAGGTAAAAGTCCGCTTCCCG"
  PBM binding z-score: 5.87
- biosequence: "CAAACTAGGTCAAGGTCAAACTCGGTTTGTGCCA"
  PBM binding z-score: 6.72
- biosequence: "CCAGACAGGTGAAAGGTAAATCAGTCTGGTACGC"
  PBM binding z-score: 4
- biosequence: "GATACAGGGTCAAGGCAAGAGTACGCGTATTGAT"
  PBM binding z-score: 2.18
- biosequence: "TGAATGAGGTTATATGATCAGGGAACGTTGCAAA"
  PBM binding z-score: 1.05
- biosequence: "TCTATTCGTTGATTAGGGCAACCGAAACAGCGGA"
  PBM binding z-score: 3.6
